Below, each entry is listed alongside its reported pEC50.
test.target: UniProt P13569
Sequence (P13569 with tags, fused parts or gaps DEL508-508): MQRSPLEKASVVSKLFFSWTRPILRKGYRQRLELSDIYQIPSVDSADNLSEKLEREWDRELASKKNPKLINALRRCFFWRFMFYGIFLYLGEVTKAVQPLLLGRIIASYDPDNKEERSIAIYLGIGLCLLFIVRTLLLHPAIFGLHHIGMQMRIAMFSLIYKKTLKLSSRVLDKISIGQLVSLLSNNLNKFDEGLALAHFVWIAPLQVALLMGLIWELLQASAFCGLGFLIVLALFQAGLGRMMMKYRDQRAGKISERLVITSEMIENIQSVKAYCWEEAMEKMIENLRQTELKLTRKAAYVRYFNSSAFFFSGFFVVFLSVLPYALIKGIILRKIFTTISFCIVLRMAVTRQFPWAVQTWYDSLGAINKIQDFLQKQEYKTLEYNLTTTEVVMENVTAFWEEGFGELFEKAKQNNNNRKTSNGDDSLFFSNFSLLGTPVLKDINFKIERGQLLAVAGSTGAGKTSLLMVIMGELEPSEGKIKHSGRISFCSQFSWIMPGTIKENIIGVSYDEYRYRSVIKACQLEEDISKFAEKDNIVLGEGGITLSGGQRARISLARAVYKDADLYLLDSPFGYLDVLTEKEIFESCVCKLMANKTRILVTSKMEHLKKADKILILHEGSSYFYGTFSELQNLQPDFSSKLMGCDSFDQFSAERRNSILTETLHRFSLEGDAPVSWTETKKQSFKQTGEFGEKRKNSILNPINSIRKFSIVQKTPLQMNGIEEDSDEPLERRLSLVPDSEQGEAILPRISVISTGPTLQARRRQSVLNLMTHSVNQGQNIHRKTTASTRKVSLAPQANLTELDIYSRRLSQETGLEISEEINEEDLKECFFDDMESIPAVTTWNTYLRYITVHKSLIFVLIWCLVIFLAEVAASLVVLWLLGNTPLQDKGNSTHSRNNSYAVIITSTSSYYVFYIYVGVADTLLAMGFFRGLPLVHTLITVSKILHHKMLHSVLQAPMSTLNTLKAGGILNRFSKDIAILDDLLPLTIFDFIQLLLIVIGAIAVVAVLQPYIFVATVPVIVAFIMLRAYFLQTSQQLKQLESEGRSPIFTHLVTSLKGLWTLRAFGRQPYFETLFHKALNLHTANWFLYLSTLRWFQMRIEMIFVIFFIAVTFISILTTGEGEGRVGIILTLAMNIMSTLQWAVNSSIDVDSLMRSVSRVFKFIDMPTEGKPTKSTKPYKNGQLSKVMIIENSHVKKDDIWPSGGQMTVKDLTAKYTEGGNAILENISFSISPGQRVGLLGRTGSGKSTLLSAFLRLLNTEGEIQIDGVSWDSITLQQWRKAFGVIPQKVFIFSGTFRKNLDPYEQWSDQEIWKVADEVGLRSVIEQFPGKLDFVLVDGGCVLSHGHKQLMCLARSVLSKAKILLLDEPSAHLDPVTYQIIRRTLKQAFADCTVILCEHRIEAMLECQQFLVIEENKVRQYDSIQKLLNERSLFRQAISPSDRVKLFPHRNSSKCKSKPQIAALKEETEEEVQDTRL
assay.procedure: Membrane Potential Dye, Enteroid Assay A
Format: cell-based
details: read-out: Ent. A EC50
pEC50: −log10 of the molar value.

Solved cases below.
// query Sample COC(=O)N1CCC2(CC1)CC(N1C(=O)c3cccc(c3)S(=O)(=O)Nc3nc(cc(-c4c(C)cccc4C)n3)OC[C@@H]1CC(C)C)C2 [Compound 113] — what was its pEC50?
// result > 6.00

// query Query: pEC50; subject: Cc1cccc(C)c1-c1cc2nc(n1)NS(=O)(=O)c1cccc(c1)C(=O)N(C1CC3(CCN(C(=O)OC(C)(C)C)CC3)C1)[C@H](CC(C)C)CO2 [Compound 13]
// result > 6.00

Okay, next one:
// query Given the entry Cc1cccc(C)c1-c1cc2nc(n1)NS(=O)(=O)c1cccc(c1)C(=O)N(C1CC3(CCN(C)CC3)C1)CC(CC(C)C)(CC(C)C)CO2 (stereo not drawn) [Compound 311] , report its measured pEC50.
// result > 6.00
